# TARGET_OR_SYSTEM: T1, synthetic amyloid-like fibrils of recombinant amyloidogenic λ6 variable domain protein (rVλ6Wil)
# T1 construct: domain: λ6 variable domain; Fibrillar aggregate of many copies; also called rVλ6Wil fibrils; rVλ6Wil synthetic fibrils
# ASSAY_EXPLANATION: EuLISA, substrate coated on plate
MEASURED_QUANTITY: Max (maximal level of binding)
API note: the answer field is a bare number with no unit suffix.

For VH9/VL4-p5 (humanized VH9/VL4 with peptide p5 fused to the N-terminal of the light chain) (antibody, V domains shown) VH: QVQLQESGPGLVKPSETLSLTCTVSGFSLSSYGVSWIRQPPGKGLEWLGVIWGDGSTNYHPNLMSRVTISVDTSKSQVLFKLSSVTAADTAVYYCATLDYWGQGTSVTVSS VL: DVVMTQSPLSLPVTLGQPASISCRSSQSLVHRNGNTYLHWFQQRPGQSPRLLIYKVSNRFSGVPDRFSGSGSGTDFTLKISRVEAEDVGVYFCFQTTYVPNTFGGGTKLEIK , what is its reported Max (maximal level of binding)? 71
